Numbers sourced from patent US9884813B1.

test-description: Carr's index and Hausner ratio (predicted flowability)
Type: physicochemical
reported-conditions: calculated from bulk and tapped volumes
observation-type: Hausner ratio

1) N=C(N)NCCC(=O)O.O=C(O)C(=O)O [β-GPA oxalate (1:1)] = 1.23
2) N=C(N)NCCC(=O)O [β-GPA, β-Guanidinopropionic acid, reference compound] = 1.610
3) N=C(N)NCCC(=O)O.N=C(N)NCCC(=O)O.O=C(O)/C=C/C(=O)O [β-GPA fumarate (2:1)] = 1.063
4) N=C(N)NCCC(=O)O.N=C(N)NCCC(=O)O.O=C(O)CCC(=O)O [β-GPA succinate (2:1)] = 1.167
